Target: CYP2D6 (Homo sapiens)
Assay: Metabolism-dependent CYP2D6 inhibition assay (IC50 shift) using pooled HLM
Conditions: human, pooled human liver microsomes, pH 7.4, probe dextromethorphan (5 µM)

{"molecule": "COc1c(O)ccc2cc3[n+](cc12)CCc1cc2c(cc1-3)OCO2 [TFD, thalifendine]", "IC50 shift at 10 min": 3.2}

---

Biological target: CYP2D6 (Homo sapiens, UniProt P10635)
Sequence (P10635 whole entry): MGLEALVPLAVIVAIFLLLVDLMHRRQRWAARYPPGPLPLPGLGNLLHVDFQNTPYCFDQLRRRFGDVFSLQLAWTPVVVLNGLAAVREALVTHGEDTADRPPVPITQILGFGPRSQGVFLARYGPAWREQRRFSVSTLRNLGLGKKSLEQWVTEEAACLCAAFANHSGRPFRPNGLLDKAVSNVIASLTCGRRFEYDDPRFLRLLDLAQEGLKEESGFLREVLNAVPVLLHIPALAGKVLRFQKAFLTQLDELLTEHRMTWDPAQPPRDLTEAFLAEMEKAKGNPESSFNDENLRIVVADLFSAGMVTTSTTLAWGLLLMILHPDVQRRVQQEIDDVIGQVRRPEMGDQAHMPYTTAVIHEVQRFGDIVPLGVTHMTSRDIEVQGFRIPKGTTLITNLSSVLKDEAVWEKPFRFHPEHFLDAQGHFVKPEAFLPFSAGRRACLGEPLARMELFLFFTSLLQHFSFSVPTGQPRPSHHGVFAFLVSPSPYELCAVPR
Assay: Metabolism-dependent CYP2D6 inhibition assay (IC50 shift) using pooled HLM
Conditions: read-out: IC50 against CYP2D6, pre-incubation with NADPH; pooled HLM; 30 min pre-incubation with NADPH
pIC50: −log10 of the molar value.

{"compound": "COc1ccc2c(c1OC)CN1CCc3cc4c(cc3C1C2)OCO4 (centres unmarked) [THB, tetrahydroberberine]", "experimental-target": "CYP2D6 (Homo sapiens, UniProt P10635)", "pIC50": 6.51}
{"compound": "COc1ccc2cc3[n+](cc2c1OC)CCc1cc(O)c(O)cc1-3", "experimental-target": "CYP2D6 (Homo sapiens, UniProt P10635)", "pIC50": 4.26}
